# TEST_NAME: decreased DLD-1 cellular survival, CellTiter-Glo luminescent readout, NPC compound collection, primary HTS (AID 1117346)
# EXPERIMENTAL_PARAMETERS: DLD-1 viability, CellTiter-Glo luminescence; at 20 µM (top of the series)
Could you please report measured viability decrease (inhibition) for the items listed next?
Give bare numbers, in %.

Provide viability decrease (inhibition) for all items below, preserving their order.
1. O=C(Nc1ccc(Oc2ccc(Cl)cc2)c(Cl)c1)c1cc(I)cc(I)c1O
2. CN(CC1(C)CCCO1)S(=O)(=O)c1ccc(Cl)c(S(N)(=O)=O)c1 (stereo not given)
3. c1ccc2sc(SN3CCOCC3)nc2c1

102
2.2
6.4

Provide viability decrease (inhibition) for all items below, preserving their order.
1. CCN(CCO)CCCC(C)Nc1ccnc2cc(Cl)ccc12 (stereo not given)
2. CCCCCCCCC=CCCCCCCCC(=O)NCCOC(=O)CC(C(=O)O)S(=O)(=O)O (stereo not given)
3. CC/C=C(\C(=O)N[C@@H]1C(=O)N2C(C(=O)OCOC(=O)C(C)(C)C)=C(COC(N)=O)CS[C@H]12)c1csc(N)n1
4. Nc1c(I)cc(I)c(C(=O)N(CCC(=O)O)c2ccccc2)c1I
5. Cc1c(Cn2ccnc2)c2ccccc2n1CCC(=O)O
6. Cc1cn([C@H]2C[C@H](N=[N+]=[N-])[C@@H](CO)O2)c(=O)[nH]c1=O
7. CCc1cc2cc(OC)c(OC)cc2c(Cc2ccccc2)n1

[-7.1, 81.6, -17.7, -9.8, 60.9, -4.95, 25.5]

----------
# TEST_NAME: ICB984 medulloblastoma cell growth inhibition, synergistic combos for chromothripsis tumors, cisplatin or BGB combos (AID 1671451);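 also: cells exposed for 96 hours before readout; 0% = vehicle DMSO and 100% = killing by high DMSO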
# EXPERIMENTAL_PARAMETERS: ICB984 medulloblastoma cells, drug combinations, BGB IC40 combo, at 0.005 µM, stronger effect = higher value
QUANTITY_KIND: inhibition (%)
Answers are plain numbers, in %.

MOLECULE: O=C1c2c(O)ccc(O)c2C(=O)c2c(NCCNCCO)ccc(NCCNCCO)c21
inhibition / %: 14.7
//
MOLECULE: O=c1[nH]cc(F)c(=O)[nH]1
inhibition / %: -27.4
//
MOLECULE: CCn1cc(C(=O)O)c(=O)c2cc(F)c(N3CCNCC3)cc21
inhibition / %: -18.2

Name the recorded inhibition of the item O=C(O)CCCc1ccccc1 in your answer.
-13.4

----------
# TEST_NAME: differential killing of epithelial or mesenchymal cells, primary screen, imaging, PC-3E GFP, TEM4-18 mCherry, co-culture (AID 1345086);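 also: cells exposed to compound for 72 h before imaging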
# EXPERIMENTAL_PARAMETERS: imaging cell counts, measured here: epithelial PC-3E GFP cell survival, at 1 µM
Rule: measured normalised cell number below 1 gets Met; anything equal to or greater than 1 gets Not met.

For orientation, consider the following solved cases.
MOLECULE: Cc1ccccc1C(OCCN(C)C)c1ccccc1 (centres undefined)
GROUP_LABEL: Met

MOLECULE: COc1ccccc1N1CCN(CCCNc2cc(=O)n(C)c(=O)n2C)CC1
GROUP_LABEL: Met

MOLECULE: CCCCNC(=O)NS(=O)(=O)c1ccc(C)cc1
GROUP_LABEL: Not met

MOLECULE: NS(=O)(=O)c1cc2c(cc1Cl)NCNS2(=O)=O
GROUP_LABEL: Not met

MOLECULE: CC(C)(C)NCC(O)COc1cccc2c1C[C@H](O)[C@H](O)C2 (some centres undefined)
GROUP_LABEL: Not met

Read the next record carefully.
Strictly below 1 in normalised cell number? NS(=O)(=O)c1cc2c(cc1C(F)(F)F)NCNS2(=O)=O
Met
